Measured values drawn from PubChem BioAssay (NCI) for this set.

- Test system: K-562 leukemia
- EXPERIMENTAL PROTOCOL: NCI tumour cell line growth inhibition, 48 h
Where a SMILES comes first, the peptide text is derived from it. The star is where a group is joined. Boc = CC(C)(C)OC(=O)*
MEASURED PROPERTY: TGI

IN: Could you tell me which TGI is on file for COC(=O)C(Cc1c[nH]c2ccccc12)NC(=O)C(Cc1c[nH]c2ccccc12)NC(=O)C(Cc1c[nH]c2ccccc12)NC(=O)C(Cc1c[nH]c2ccccc12)NC(=O)C(Cc1c[nH]c2ccccc12)NC(=O)C(Cc1c[nH]c2ccccc12)NC(=O)C(Cc1c[nH]c2ccccc12)NC(=O)C(Cc1c[nH]c2ccccc12)NC(=O)OC(C)(C)C (centres undefined) (Boc-WWWWWWWW-OMe; configuration not given here) ?
OUT: > 100 µM

IN: // query: CC1OC(n2cc(F)c(=O)[nH]c2=O)C=CC1=O (centres undefined)
OUT: > 100 µM

IN: Please answer likewise for CC(=O)OCC1OC(n2c(-c3ccc(C)cc3)cc(-c3ccccc3)c(C#N)c2=O)C(OC(C)=O)C(OC(C)=O)C1OC(C)=O (centres undefined)
OUT: > 100 µM

IN: Please give the result for CN(C)CCNC(=O)c1ccc(NC(=O)c2nc([N+](=O)[O-])cn2C)cc1 too.
OUT: > 100 µM

IN: How about this compound: Cn1cc(C(=O)C[n+]2ccccc2)c2ccccc21
OUT: > 100 µM

IN: Next record, please: CC1=C(C(=O)Nc2ccccc2)C2(CCCCC2)C(C#N)=C(SCC(=O)Nc2ccc(Br)cc2)N1
OUT: 23 µM

IN: Another compound to look at: O=C1c2ccccc2S(=O)(=O)c2cc(-c3nn[nH]n3)ccc21
OUT: > 100 µM

IN: Same for CCCCCCCc1cc2c3c(nc4ccccc42)C(=O)c2cccnc2-c3n1
OUT: > 24.2 µM

IN: // query: CC(=O)C1=C(O)CC2CC3c4[nH]c5ccccc5c4CCN3CC2C1 (centres undefined)
OUT: > 100 µM

IN: // same read-out, input: COc1ccc(-c2cc3[nH]nc(N)c3c(=O)o2)cc1
OUT: > 100 µM

IN: One more compound: O=[N+]([O-])c1cc(-c2nc(-c3ccccc3)c(-c3ccccc3)[nH]2)c(O)c([N+](=O)[O-])c1
OUT: > 100 µM

IN: Also check COc1ccc2nc(-c3ccc(O)cc3)sc2c1
OUT: > 100 µM

IN: Ok, now Cc1cc(C)c(-n2c(-c3ccc(Br)cc3)cs/c2=N\N=C2C=C(C(C)(C)C)C(=O)C(C(C)(C)C)=C2)c(C)c1
OUT: > 100 µM

IN: Okay, and CCN1CCC(O)(c2ccc(Cl)cc2)C(C(=O)c2ccc(Cl)cc2)C1 (centres undefined) ?
OUT: > 100 µM

IN: What about Cc1cc(Cl)ccc1NC(=O)CC1SC(=Nc2ccccc2Cl)NC1=O (centres undefined) ?
OUT: > 100 µM

IN: What do we get for COc1ccc(SCc2cc(OCc3ccccc3)c(OCc3ccccc3)c(OCc3ccccc3)c2)cc1 ?
OUT: 2.62 µM

IN: Could you do the same for CN(C)c1ccc(/C=c2\sc3nc4ccccc4n3c2=O)cc1 , please?
OUT: > 100 µM

IN: Also, O=C1C(Cl)=C(NCc2ccco2)C(=O)c2ccccc21 please.
OUT: > 100 µM

IN: What about CCN(CC)c1ccc(C(=O)c2ccc(N(CC)CC)cc2)cc1 ?
OUT: 10.2 µM

IN: How about this compound: CCOC(=O)c1c2c(n3ccccc13)C(=O)c1ncccc1C2=O
OUT: > 100 µM

IN: Continue with CN1C(=O)C2C(C1=O)C1(O)c3ccccc3C2(N)c2ccccc21 (centres undefined)
OUT: > 100 µM

IN: // query: CCOC(=O)c1ccc(N=c2sc3ccccc3nc2Nc2ccc(C(=O)OCC)cc2)cc1
OUT: > 100 µM

IN: Likewise for CC1(C)C2C=CC1C(=O)CC2 (centres undefined) ?
OUT: > 100 µM

IN: Repeat for the following compound: Cc1ccc(S(=O)(=O)NNCNC(=O)c2ccccc2)cc1
OUT: > 100 µM

IN: Okay, and Cn1cc(-c2ccc(-c3ccc(C4=NC5(CC5)C(=O)N4C[C@@H]4CCN(C(=O)C5CC5)C4)cc3)cc2)cn1 ?
OUT: > 100 µM

IN: And for CC(C)(C)OC(=O)N1C(c2cccnc2)=CC[C@H]2C3CC=C(c4cccnc4)[C@@]3(C)CC[C@@H]21 (some centres undefined) ?
OUT: 38.6 µM

IN: // repeat for COc1ccc2c(c1)CCc1c-2n(CCN2CCCCC2)c2ccc(OC)cc12 and report
OUT: > 100 µM

IN: Would you kindly repeat that for CC(=O)OCc1ccc2oc(=O)c(C(=O)Oc3ccccc3)cc2c1 ?
OUT: 30 µM

IN: Now try NC(=S)N/N=C\c1nccc2ccccc12 .
OUT: > 50 µM

IN: Proceed to Cc1cccc(C)c1NC(=O)C(=O)Nn1c(NN)nc2ccccc2c1=O
OUT: > 100 µM

IN: Also Cc1cc2c([nH]c3ccccc32)c2c1OC(C)(C)C1C3CC(C)(C)Oc4c(C)cc5c6ccccc6n(c5c43)C21 (centres undefined) , if possible.
OUT: > 100 µM

IN: Again, but for CCOc1ccc2nc(NC(=O)C(=O)C(c3cnc4ccccc4n3)[N+](=O)[O-])sc2c1 (centres undefined)
OUT: > 100 µM

IN: Proceed to CN(C)c1nc(Cl)c2c(-c3ccccc3)c(-c3ccccc3)oc2n1
OUT: > 100 µM

IN: Then COc1cc(CNNC(N)=S)cc(OC)c1OC ?
OUT: > 100 µM

IN: Try this compound next: CCOC(=O)c1ccc(NCC#CCN2CCCCC2)cc1
OUT: > 100 µM

IN: Subsequent entry: CCOC(=O)c1[nH]c(COC(C)=O)c2c1CCCCCCCCCC2
OUT: > 100 µM

IN: // repeat for CC(=O)O[C@H]1[C@H](OC(=O)CC(C)(O)CC(=O)O)C[C@]2(C)C3=C(CCC2C1(C)C)[C@]1(C)CC[C@H]([C@H]2CC[C@H](C(C)(C)O)OC2O)[C@@]1(C)[C@@H](O)C3 (some centres undefined) and report
OUT: 76.5 µM

IN: Please give the result for C[N+]1=C(/C=C\C=C\c2ccccc2)C(C)(C)c2ccccc21 too.
OUT: 7.28 µM

IN: What do you get for N#CC1CCCCCCCCCCC(=O)N(CCCl)C1=O (centres undefined) ?
OUT: > 100 µM
